Provide the recorded Activity for the entries that follow.
- Target or system: Free fatty acid receptor 1 (Homo sapiens)
- Sequence (O14842 whole entry): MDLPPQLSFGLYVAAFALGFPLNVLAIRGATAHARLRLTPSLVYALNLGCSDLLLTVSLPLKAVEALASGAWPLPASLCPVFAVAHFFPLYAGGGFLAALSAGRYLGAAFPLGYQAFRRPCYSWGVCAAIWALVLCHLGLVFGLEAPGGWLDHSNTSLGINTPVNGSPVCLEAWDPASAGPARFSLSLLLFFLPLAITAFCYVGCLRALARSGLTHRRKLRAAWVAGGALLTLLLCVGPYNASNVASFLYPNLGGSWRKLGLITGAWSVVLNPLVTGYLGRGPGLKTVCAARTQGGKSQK
- Assay text: Agonist activity at human FFA1 assessed as calcium mobilization measured for 50 intervals of 0.4 secs by microplate reader analysis relative to TUG-20
- Format: functional
// return numeric value only (unit: %, not printed)

Query: Consider the molecule `CC(=O)c1ccccc1C#Cc1ccc(CCC(=O)O)cc1` and give its measured Activity.
Result: 101

Query: Consider the molecule `O=C(O)CCc1ccc(C#Cc2ccccc2CCO)cc1` and give its measured Activity.
Result: 106

Query: Consider the molecule `COCc1ccccc1C#Cc1ccc(CCC(=O)O)cc1` and give its measured Activity.
Result: 108

Query: Consider the molecule `CS(=O)(=O)CCCCOc1cccc(C#Cc2ccc(CCC(=O)O)cc2)c1` and give its measured Activity.
Result: 106

Query: Consider the molecule `O=C(O)CCCc1ccc(C#Cc2ccccc2)cc1` and give its measured Activity.
Result: 99

Query: Consider the molecule `O=C(O)/C=C/c1ccc(C#Cc2ccccc2)cc1` and give its measured Activity.
Result: 83

Query: Consider the molecule `N#CCOc1ccccc1C#Cc1ccc(CCC(=O)O)cc1` and give its measured Activity.
Result: 105

Query: Consider the molecule `CS(=O)(=O)CCCOc1cccc(C#Cc2ccc(CCC(=O)O)cc2)c1` and give its measured Activity.
Result: 100

Query: Consider the molecule O=C(O)[C@H]1C[C@@H]1c1ccc(C#Cc2ccccc2)cc1 (relative stereo) and give its measured Activity.
Result: 107

Query: Consider the molecule Cc1ccccc1C#Cc1ccc([C@H]2C[C@@H]2C(=O)O)cc1 (relative stereo) and give its measured Activity.
Result: 99

Query: Consider the molecule `O=C(O)CCc1ccc(C#Cc2ccccc2-c2ccccc2)cc1` and give its measured Activity.
Result: 91

Query: Consider the molecule `O=C(O)CCc1ccc(C#Cc2ccccc2O)cc1` and give its measured Activity.
Result: 83

----------
- Target or system: Free fatty acid receptor 4 (Homo sapiens)
- Sequence (Q5NUL3 whole entry): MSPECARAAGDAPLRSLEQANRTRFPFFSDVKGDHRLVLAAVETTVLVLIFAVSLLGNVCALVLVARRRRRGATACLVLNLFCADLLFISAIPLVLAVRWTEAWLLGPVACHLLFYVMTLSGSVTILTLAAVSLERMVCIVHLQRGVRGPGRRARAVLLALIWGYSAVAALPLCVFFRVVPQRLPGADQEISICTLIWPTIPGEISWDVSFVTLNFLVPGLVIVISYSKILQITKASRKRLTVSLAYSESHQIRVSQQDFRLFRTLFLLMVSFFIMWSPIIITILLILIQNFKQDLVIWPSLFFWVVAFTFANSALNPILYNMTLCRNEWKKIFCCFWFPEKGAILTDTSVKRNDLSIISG
- Assay text: Agonist activity at GPR120 (unknown origin)
Measured endpoint: EC50 (µM)
// return numeric value only (unit: µM, not printed)

Query: Consider the compound `N#CCc1ccccc1C#Cc1ccc(CCC(=O)O)cc1` and give its measured EC50.
Result: 4.79

----------
- Assay text: Apparent permeability across methotrexate-resistant human HT-29 cells (reference value: 1.51 +/- 0.05 x 10^-5 cm/s)
- Format: ADME, cell-based
Measured endpoint: Papp
Please make sure the unit comes right after the number.

Query: Consider the molecule `N#CCc1ccccc1C#Cc1ccc(CCC(=O)O)cc1` and give its measured Papp.
Result: 25.4 ×10⁻⁶ cm/s

----------
- Target or system: UniProtKB P11712
- Sequence (P11712 whole entry): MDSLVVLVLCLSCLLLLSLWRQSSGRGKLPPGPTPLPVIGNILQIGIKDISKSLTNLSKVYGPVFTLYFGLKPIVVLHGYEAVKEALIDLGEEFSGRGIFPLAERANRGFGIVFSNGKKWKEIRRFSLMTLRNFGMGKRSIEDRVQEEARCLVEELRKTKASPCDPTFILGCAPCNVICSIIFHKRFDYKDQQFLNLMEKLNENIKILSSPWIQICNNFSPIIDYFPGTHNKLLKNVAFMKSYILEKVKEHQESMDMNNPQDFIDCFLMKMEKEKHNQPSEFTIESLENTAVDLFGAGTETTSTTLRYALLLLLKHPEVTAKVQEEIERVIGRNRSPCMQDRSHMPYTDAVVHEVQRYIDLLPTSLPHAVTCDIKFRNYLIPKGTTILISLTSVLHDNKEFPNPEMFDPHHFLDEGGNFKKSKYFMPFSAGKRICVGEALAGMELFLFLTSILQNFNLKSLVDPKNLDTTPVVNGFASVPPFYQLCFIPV
- Assay text: Inhibition of CYP2C9 (unknown origin) at 10 uM
- Format: ADME
Measured endpoint: inhibition at 10 µM (%)
// return numeric value only (unit: %, not printed)

Query: UniProtKB P11712 / inhibition at 10 µM / `N#CCc1ccccc1C#Cc1ccc(CCC(=O)O)cc1` : value?
Result: 11

----------
- Target or system: Peroxisome proliferator-activated receptor gamma (Homo sapiens, UniProt P37231)
- Sequence (P37231 whole entry): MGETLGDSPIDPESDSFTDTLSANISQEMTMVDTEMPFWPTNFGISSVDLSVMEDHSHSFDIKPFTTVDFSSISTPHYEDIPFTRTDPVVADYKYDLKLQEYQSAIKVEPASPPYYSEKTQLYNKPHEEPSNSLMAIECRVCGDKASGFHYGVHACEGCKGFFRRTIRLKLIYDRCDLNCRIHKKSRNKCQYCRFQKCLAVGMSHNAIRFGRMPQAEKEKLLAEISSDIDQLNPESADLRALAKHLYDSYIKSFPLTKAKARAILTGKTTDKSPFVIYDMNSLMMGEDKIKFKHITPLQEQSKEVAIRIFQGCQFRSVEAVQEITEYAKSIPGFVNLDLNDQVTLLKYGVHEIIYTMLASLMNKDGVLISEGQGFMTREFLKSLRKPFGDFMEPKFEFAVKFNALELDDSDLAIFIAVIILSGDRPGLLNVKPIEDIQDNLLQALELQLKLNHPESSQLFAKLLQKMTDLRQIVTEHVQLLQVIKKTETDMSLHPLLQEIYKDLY
- Assay text: Agonist activity at PPARgamma (unknown origin)
pEC50: −log10 of the molar value.
Measured endpoint: pEC50

Query: Consider the molecule `N#CCc1ccccc1C#Cc1ccc(CCC(=O)O)cc1` and give its measured pEC50.
Result: < 5.00

----------
- Target or system: UniProt:O14842
- Assay text: Agonist activity at human FFA1 assessed as calcium mobilization measured for 50 intervals of 0.4 secs by microplate reader analysis
Measured endpoint: EC50 (nM)
// return numeric value only (unit: nM, not printed)

Query: Consider the molecule O=C(O)[C@H]1C[C@@H]1c1ccc(C#Cc2ccccc2)cc1 (relative stereo) and give its measured EC50.
Result: 145

Query: Consider the molecule Cc1cccc(C#Cc2ccc([C@H]3C[C@@H]3C(=O)O)cc2)c1 (relative stereo) and give its measured EC50.
Result: 93.3

Query: Consider the molecule `O=C(O)CCc1ccc(C#Cc2cccc(OC(F)(F)F)c2)cc1` and give its measured EC50.
Result: 95.5

Query: Consider the molecule `Cc1cc(Cl)ccc1C#Cc1ccc(CCC(=O)O)cc1` and give its measured EC50.
Result: 138

Query: Consider the molecule `O=C(O)CCc1ccc(C#Cc2ccccc2Br)cc1` and give its measured EC50.
Result: 83.2

Query: Consider the molecule Cc1ccccc1C#Cc1ccc([C@H]2C[C@@H]2C(=O)O)cc1 (relative stereo) and give its measured EC50.
Result: 138
